Collected IC50 for Receptor-type tyrosine-protein kinase FLT3 (Homo sapiens) across several studies; compounds listed below.
quantityName: IC50

smilesEntry | quantityName | result
CCc1nc2c(N)ncc(-c3cnn(-c4ccc(C5CCN(C)CC5)cc4)c3)c2nc1N[C@@H]1CC[C@H](O)C1 | IC50 | ≤ 10 nM
COCC(=O)N1C(C)(C)CC(Oc2ncc([C@H]3CC[C@H](O)CC3)c3nc(N[C@@H](C)CC(F)(F)F)ncc23)CC1(C)C | IC50 | 1000 to 10000 nM
CNC(=NC#N)N[C@H]1CC[C@H](c2cc(-c3ccc(CN4CCOCC4)cc3)c3cnc(N[C@@H](C)COC)nn32)CC1 | IC50 | ≤ 100 nM
C[C@@H](CC(F)(F)F)Nc1ncc2c(-c3ccnc(N4CCOCC4)c3)cc([C@H]3CC[C@H](O)CC3)n2n1 | IC50 | ≤ 100 nM
CN1CCN(c2ccc3nc(-c4c(N[C@H]5CCCC[C@H]5O)c5cscc5[nH]c4=O)[nH]c3c2)CC1 | IC50 | ≤ 50 nM
CCc1nc2c(N)ncc(-c3cnn(C4CCN(C5COC5)CC4)c3)c2nc1NC1CCOCC1 | IC50 | ≤ 10 nM
Fc1ccc(-c2n[nH]c3c2Cc2sccc2-3)cc1 | IC50 | 100 to 499 nM
COC[C@H](C)Nc1ncc2c(-c3ccnc(N4CCC5(CCO5)CC4)c3)cc([C@H]3CC[C@H](O)CC3)n2n1 | IC50 | 100 to 1000 nM
CN(Cc1ccc(NC(=O)Nc2ccc(Oc3cc(Cl)ncn3)cc2)cc1C(F)(F)F)C(C)(C)C | IC50 | 1800 nM
COc1cc2c(Oc3ccc(NC(=O)c4c(C)n(C)c5ccc(OC(F)(F)F)cc5c4=O)cc3F)ncnc2cc1OCCCN1CCCC1 | IC50 | 5.2 nM
COC[C@H](C)Nc1ncc2c(-c3ccc(C4(N5CCOCC5)CC4)cc3)cc([C@H]3CC[C@H](O)CC3)n2n1 | IC50 | 100 to 1000 nM
O=c1c2cc(F)cc(Cl)c2sc2c(NCCCNCCO)nc3ccccc3c12 | IC50 | > 1000 nM
COC[C@H](C)Nc1ncc2c(-c3cnn(C(C)(C)C(=O)N4CCN(C)CC4)c3)cc([C@H]3CC[C@H](O)CC3)n2n1 | IC50 | 1000 to 10000 nM
CN1CCN(c2ccc3nc(-c4c(N[C@H]5CCCC[C@@H]5O)c5sccc5[nH]c4=O)[nH]c3c2)CC1 | IC50 | ≤ 50 nM
COC[C@H](C)Nc1ncc2c(OC3CCOCC3)ncc(-c3cn[nH]c3)c2n1 | IC50 | 100 to 1000 nM
CCOC[C@H](C)Nc1ncc2c(OC3CCOCC3)ncc([C@H]3CC[C@H](O)CC3)c2n1 | IC50 | 1000 to 10000 nM
c1cc(-c2n[nH]c3c2Cc2sccc2-3)co1 | IC50 | 500 to 1000 nM
O=C1Nc2cc(NC(=O)N3CCN(c4ccc(Cl)cc4)C3=O)ccc2/C1=C/c1ccc[nH]1 | IC50 | 854 nM
CC[C@H](C)Nc1ncc2c(OC3CCOCC3)ncc([C@H]3CC[C@H](O)CC3)c2n1 | IC50 | 100 to 1000 nM
CNC(=O)c1ccc(-c2cc([C@H]3CC[C@H](O)CC3)n3nc(N[C@@H](C)CC(F)(F)F)ncc23)cn1 | IC50 | ≤ 100 nM
COc1ccc(Nc2ccc(Cc3c[nH]c4ncnc(OC)c34)c(F)n2)cn1 | IC50 | < 1000 nM
COC[C@H](C)Nc1ncc2c(CC#N)cc([C@H]3CC[C@H](O)CC3)n2n1 | IC50 | 1000 to 10000 nM
CCN(CC)CCNc1ccc2c(n1)sc1nc(-c3ccc(NC(=O)Nc4cc(C(C)(C)C)on4)cc3)cn12 | IC50 | 19 nM
CCc1nc2c(N)ncc(-c3cnn(C4CCN(C5CCN(CC(C)C)CC5)CC4)c3)c2nc1NC1CCOCC1 | IC50 | ≤ 10 nM
COC[C@H](C)Nc1ncc2c(OC3CCOCC3)ncc([C@H]3CC[C@@](C)(O)CC3)c2n1 | IC50 | 1000 to 10000 nM
CCc1nc2c(N)ncc(-c3cnn(C4CCN(CC)CC4)c3)c2nc1N[C@H]1CCOC1 | IC50 | ≤ 10 nM
O=C(Nc1ccc(Oc2ncnc3[nH]ncc23)c(F)c1)Nc1ccc(Cl)c(C(F)(F)F)c1 | IC50 | 25 nM
O=C(NC(=O)c1ccccc1)Nc1ccc2c(c1)NC(=O)/C2=C\c1ccc[nH]1 | IC50 | > 10000 nM
CC[C@H](C)Nc1ncc2c(=O)n(CC34CCC(N(C)C)(CC3)CC4)cc([C@H]3CC[C@H](O)CC3)c2n1 | IC50 | 1000 to 10000 nM
CC[C@H](C)Nc1ncc2c(=O)n(C3CCOCC3)cc([C@H]3CC[C@H](O)CC3)c2n1 | IC50 | 1000 to 10000 nM
